Data provenance: paper PMC9995496

// Inh (PKA) lookup, one value per entry
Tested on: PRKACA-PRKAR2A interaction (SmBiT-PRKACA / LgBiT-PRKAR2A), protein kinase A
Parameters: NanoLuc complementation counter-screen in cell extract, PRKACA with PRKAR2A, loss of luminescence, detects NanoLuc interference
runParameters: counter-screen for NanoLuc interference; 0.5 h, 20 µM; inhibitor
Please give a number only; it is taken to be in %.

Solved cases below.
compound: CN(CCOc1ccc(NS(C)(=O)=O)cc1)CCc1ccc(NS(C)(=O)=O)cc1 [UM0142033:01, Dofetilide]
Inh (PKA) / %: -0.1542
//
compound: Cc1cc([C@@H](C)Nc2ccccc2C(=O)O)c2nc(N3CCOCC3)cc(=O)n2c1
Inh (PKA) / %: 55.75
//
compound: CC(=O)NCCCS(=O)(=O)O [UM0133300:02, Acamprosate calcium]
Inh (PKA) / %: 0.9397
//
compound: O=C(NC(NC(=S)Nc1ccc(F)c([N+](=O)[O-])c1)C(Cl)(Cl)Cl)C(c1ccccc1)c1ccccc1 (stereo not shown)
Inh (PKA) / %: 35.68
//
compound: O=C(O)c1ccnc(C(=O)O)c1
Inh (PKA) / %: 1.396

Query: Entry COC(=O)Nc1nc2cc(C(=O)c3cccs3)ccc2[nH]1 , system PRKACA-PRKAR2A interaction (SmBiT-PRKACA / LgBiT-PRKAR2A), protein kinase A: what Inh (PKA) was measured?
Reply: 9.707

Query: Entry O=C1NC(=O)/C(=C/c2cccc(C(F)(F)F)c2)S1 , system PRKACA-PRKAR2A interaction (SmBiT-PRKACA / LgBiT-PRKAR2A), protein kinase A: what Inh (PKA) was measured?
Reply: 63.38

Query: Entry CC(C)c1nc(CN(C)C(=O)N[C@H](C(=O)N[C@@H](Cc2ccccc2)C[C@H](O)[C@H](Cc2ccccc2)NC(=O)OCc2cncs2)C(C)C)cs1 , system PRKACA-PRKAR2A interaction (SmBiT-PRKACA / LgBiT-PRKAR2A), protein kinase A: what Inh (PKA) was measured?
Reply: 6.592

Query: Entry COc1nccnc1NS(=O)(=O)c1ccc(NC(=O)/C=C/c2ccc([N+](=O)[O-])s2)cc1 [UM0142796:01, Necrosulfonamide] , system PRKACA-PRKAR2A interaction (SmBiT-PRKACA / LgBiT-PRKAR2A), protein kinase A: what Inh (PKA) was measured?
Reply: 27.6

---

Test system: PRKACA-PRKAR2A interaction (SmBiT-PRKACA / LgBiT-PRKAR2A), protein kinase A
Design: NanoLuc complementation counter-screen in cell extract, PRKACA with PRKAR2A, loss of luminescence, detects NanoLuc interference
runParameters: counter-screen for NanoLuc interference; 0.5 h, 20 µM; inhibitor
readoutLabel: Inh (PKA) (%)
Please give a number only; it is taken to be in %.

structureSmiles: OCCn1cc(-c2cnc3nnn(Cc4ccc5ncccc5c4)c3n2)cn1
Inh (PKA) / %: 1.023
//
structureSmiles: CN(C)C(=O)c1cc2cnc(Nc3ccc(N4CCNCC4)cn3)nc2n1C1CCCC1
Inh (PKA) / %: 5.257
//
structureSmiles: C[C@H](Nc1ncnc2nc[nH]c12)c1cc2cccc(Cl)c2c(=O)n1-c1ccccc1
Inh (PKA) / %: 8.901
//
structureSmiles: CCCCN(Cc1ccc(C(=O)NO)cc1)C(=O)Nc1ccccc1
Inh (PKA) / %: 2.476
//
structureSmiles: O=C(Nc1cccc(Nc2ncc(Br)c(NCCc3cnc[nH]3)n2)c1)N1CCCC1
Inh (PKA) / %: 45.28
//
structureSmiles: COc1ccc(-c2ccc3c(N4CCOC[C@@H]4C)nc(N4CCOC[C@@H]4C)nc3n2)cc1CO
Inh (PKA) / %: 6.662
//
structureSmiles: CC[C@H](C)n1cc(C)c2c(C(=O)NCc3c(C)cc(C)[nH]c3=O)cc(-c3ccc(N4CCNCC4)nc3)cc21
Inh (PKA) / %: 5.02
//
structureSmiles: C[C@H](NC(=O)CCC(F)(F)F)C(=O)N[C@@H]1C(=O)N(CCO)c2ncccc2-c2ccccc21
Inh (PKA) / %: -1.62

Now turn to the next molecule.
Query: Item COC(=O)c1ccc([C@@H]2c3[nH]c4ccccc4c3C[C@@H](C(=O)OC)N2C(=O)CCl)cc1 has what recorded Inh (PKA)?
Reply: 22.95

---

Test system: PRKACA-PRKAR2A interaction (SmBiT-PRKACA / LgBiT-PRKAR2A), protein kinase A
Set-up: NanoLuc complementation counter-screen in cell extract, PRKACA with PRKAR2A, loss of luminescence, detects NanoLuc interference
runParameters: counter-screen for NanoLuc interference; 0.5 h, 20 µM; inhibitor
readoutLabel: Inh (PKA) (%)
Please give a number only; it is taken to be in %.

Solved cases below.
compound: CC(=O)O[C@H]1Cc2ccccc2N(C(N)=O)c2ccccc21 [UM0142518:01, Eslicarbazepine acetate]
unitTag: %
Inh (PKA): -0.7534
//
compound: CC(=O)Nc1nc(C)c(-c2ccc(Cl)c(S(=O)(=O)NCCO)c2)s1
unitTag: %
Inh (PKA): 6.642
//
compound: Nc1nc(=O)c2nc(CNc3ccc(C(=O)N[C@@H](CCC(=O)O)C(=O)O)cc3)cnc2[nH]1
unitTag: %
Inh (PKA): 2.052
//
compound: CNC(=O)CN1CCC(Oc2cc3c(Nc4cccc(Cl)c4F)ncnc3cc2OC)CC1 [UM0142022:01, AZD8931 (Sapitinib)]
unitTag: %
Inh (PKA): 6.017
//
compound: NC(=S)N/N=C/c1ncccc1N
unitTag: %
Inh (PKA): 0.417

Query: Item Nc1ncnc2c1ncn2[C@@H]1O[C@H](CO)C[C@H]1O [UM0142866:01, Cordycepin] has what recorded Inh (PKA)?
Reply: -8.119

Query: Item O=C1CCc2cc(OCCCCc3nnnn3C3CCCCC3)ccc2N1 has what recorded Inh (PKA)?
Reply: 4.034

Query: Item Cn1c(N2CCCCS2(=O)=O)nc(C(=O)NCc2ccc(F)cc2)c(O)c1=O has what recorded Inh (PKA)?
Reply: 4.266

Query: Item CCC1=C(C)CN(C(=O)NCCc2ccc(S(=O)(=O)NC(=O)N[C@H]3CC[C@H](C)CC3)cc2)C1=O [UM0134252:02, Glimepiride] has what recorded Inh (PKA)?
Reply: 4.382

Query: Item O=c1c(-c2ccc(O)cc2)coc2cc(O)cc(O)c12 has what recorded Inh (PKA)?
Reply: 59.26

---

// Inhibition percent lookup, one value per entry
assaySystem: MeCP2-TBL1 interaction (MeCP2-SmBiT / TBL1-LgBiT) (Mus musculus, UniProt Q9QXE7)
Construct: expressed in transfected cells; crude lysate used as a cell-free assay
Sequence (Q9QXE7 166-527): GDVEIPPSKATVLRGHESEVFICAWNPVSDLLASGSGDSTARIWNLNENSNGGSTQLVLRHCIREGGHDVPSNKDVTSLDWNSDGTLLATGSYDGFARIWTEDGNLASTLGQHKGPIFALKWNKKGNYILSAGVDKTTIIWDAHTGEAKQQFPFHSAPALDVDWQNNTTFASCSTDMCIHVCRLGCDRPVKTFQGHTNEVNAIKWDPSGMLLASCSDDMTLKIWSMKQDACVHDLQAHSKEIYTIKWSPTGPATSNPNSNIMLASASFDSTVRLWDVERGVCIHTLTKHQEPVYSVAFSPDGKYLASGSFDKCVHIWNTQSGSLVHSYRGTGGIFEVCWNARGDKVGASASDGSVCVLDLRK
protocolSummary: MeCP2-TBL1 NanoLuc luciferase complementation assay (cell-free, extracts of transfected HEK293 cells);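 note: each compound tested at 20 µM final concentration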
Type: binding, human
runParameters: primary screen of the Asinex library, sheet "Sargen output Asinex library", one well per compound
Please give a number only; it is taken to be in %.

compound: Cc1ncc(C(=O)N2CCC[C@@H]3[C@H]2C/C=C/Cc2ccccc2OCC(=O)N3C)c(C)n1
resultValue: -2.62
--
compound: O=C(Cn1cccc(C(=O)NCc2ccccc2)c1=O)NC1(c2ccccc2)CCCC1
resultValue: 2.11

Query: Item O=C(N1CCC2(CC1)COC(Cc1cccc(F)c1)C2)C1(c2cccc(F)c2)CCOCC1 (centres unmarked) has what recorded Inhibition percent?
Reply: 0.54

Query: Item C[C@@H]1CC[C@@H]2[C@@H](O1)c1cc(C(=O)NCCc3ccccc3)ccc1OC2(C)C has what recorded Inhibition percent?
Reply: -0.86

Query: Item Cc1nonc1COc1ccccc1C(=O)N1CCCC(Cc2ccnc3ccccc23)CC1 (centres unmarked) has what recorded Inhibition percent?
Reply: -0.73

Query: Item CC(=O)N[C@H]1C[C@@H](C(=O)N(C)C)N(CC(=O)Nc2cccc(C(F)(F)F)c2)[C@H]1c1ccccc1 has what recorded Inhibition percent?
Reply: -1.15

Query: Item Cc1ccc2nc(COCC(=O)N3CCCC3c3ccnc(-c4cccc(Cl)c4)n3)[nH]c2c1 (centres unmarked) has what recorded Inhibition percent?
Reply: 1.05

Query: Item O=[N+]([O-])c1ccc2c(c1)[C@H]1OCCC[C@@H]1C1(CCCCC1)O2 has what recorded Inhibition percent?
Reply: 0.74

Query: Item COc1ccccc1CC(=O)N1CCCCC1c1ncc(Cc2ccccc2OC)o1 (centres unmarked) has what recorded Inhibition percent?
Reply: 5.46

---

System: PRKACA-PRKAR2A interaction (SmBiT-PRKACA / LgBiT-PRKAR2A), protein kinase A
Set-up: NanoLuc complementation counter-screen in cell extract, PRKACA with PRKAR2A, loss of luminescence, detects NanoLuc interference
runParameters: counter-screen for NanoLuc interference; 0.5 h, 20 µM; inhibitor
Peptide text beside a SMILES is read from it. * marks the point of attachment. Cbz = O=C(OCc1ccccc1)*
readoutLabel: Inh (PKA) (%)
Please give a number only; it is taken to be in %.

Solved cases below.
molecule: CC(C)=CCC[C@]1(C)C=Cc2c(O)c3c(c(CC=C(C)C)c2O1)O[C@]12C(=C[C@@H]4C[C@H]1C(C)(C)O[C@@]2(C/C=C(/C)C(=O)O)C4=O)C3=O
assaySystem: PRKACA-PRKAR2A interaction (SmBiT-PRKACA / LgBiT-PRKAR2A), protein kinase A
unitTag: %
Inh (PKA): 4.588
//
molecule: CC(C)[C@H](NC(=O)OCc1ccccc1)C(=O)N[C@H](C=O)Cc1ccccc1 [UM0141833:01, MDL 28170] (Cbz-Val-Phe-aldehyde)
assaySystem: PRKACA-PRKAR2A interaction (SmBiT-PRKACA / LgBiT-PRKAR2A), protein kinase A
unitTag: %
Inh (PKA): 3.195

Query: Item CC1(C)[C@@H](O[C@H]2O[C@H](C(=O)O)[C@@H](O)[C@H](O)[C@H]2O[C@@H]2O[C@H](C(=O)O)[C@@H](O)[C@H](O)[C@H]2O)CC[C@]2(C)[C@H]3C(=O)C=C4[C@@H]5C[C@@](C)(C(=O)O)CC[C@]5(C)CC[C@@]4(C)[C@]3(C)CC[C@@H]12 has what recorded Inh (PKA)?
Reply: 4.863
